I'd be grateful if you could share measured viability for these entries.
- Measurement notes: ovarian cancer cell viability with rucaparib, profiling panel, oncology-focused library, rucaparib conditional (AID 1508598)
- Condition notes: patient-derived ovarian cancer cells, CellTiter-Glo viability, 144 h; at 1.25 µM; OCI-P5x cells; with rucaparib 20 µM; stronger effect = lower value; 100% = cells with rucaparib alone
Activity calls are given as the source filed them.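 Rule for the calls: active = normalized viability below 100% at a tested concentration; inactive = the rest.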

Below, each entry is followed by its recorded viability result.
Compound string: O=C(CCc1ccc(O)cc1)c1c(O)cc(O)cc1O
viability: 97.8% (active)
//
Compound string: CC(C)C[C@H](NC(=O)[C@H](Cc1ccccc1)NC(=O)c1cnccn1)B(O)O
viability: 1.8% (active)

Report viability for every entry below.
1. CN1CC[C@H](c2c(O)cc(O)c3c(=O)cc(-c4ccccc4Cl)oc23)[C@H](O)C1
2. O=C(NOCC1CC1)c1ccc(F)c(F)c1Nc1ccc(I)cc1Cl
3. COc1c(C)c2c(c(O)c1C/C=C(\C)CCC(=O)O)C(=O)OC2

1. 16.2% (active)
2. 87.2% (active)
3. 70% (active)

* * *

I'd be grateful if you could share measured nuclear beta-catenin stimulation for these entries.
- Measurement notes: stimulators of nuclear beta-catenin in C2C12, primary screen, imaging, WNT3A-conditioned medium, mouse C2C12, NPC library (AID 1117326)
- Condition notes: at 10 µM, stronger effect = higher value
Answers are plain numbers, in %.

Below, each entry is followed by its recorded nuclear beta-catenin stimulation result.
Compound string: CC1=C(C)C(=O)C(CCCCC#CCCCC#CCO)=C(C)C1=O
nuclear beta-catenin stimulation / %: 2.7
//
Compound string: Cc1c(O)cc2c(c1C)O[C@](C)(CCC[C@H](C)CCC[C@H](C)CCCC(C)C)CC2
nuclear beta-catenin stimulation / %: 0.3
//
Compound string: CNCc1ccccc1
nuclear beta-catenin stimulation / %: -1.9

Report nuclear beta-catenin stimulation for every entry below.
1. CCCCCCCCCCCCCCCCCCOP(=O)([O-])OC1CC[N+](C)(C)CC1
2. O=C(Oc1ccccc1C(=O)O)c1ccccc1O
3. CCC(=O)c1ccc2c(c1)N(CCCN(C)C)c1ccccc1S2
4. O=C(O)c1ccc(-n2nc(-c3ccccc3O)nc2-c2ccccc2O)cc1
5. CC(=O)Oc1cc(C(C)C)c(OCCN(C)C)cc1C
6. NC(=O)C1(N2CCCCC2)CCN(CCCN2c3ccccc3CCc3ccc(Cl)cc32)CC1
7. COc1ccc(-c2ccc3cc(C(=O)O)ccc3c2)cc1C12CC3CC(CC(C3)C1)C2

1: -0.8; 2: 0.1; 3: 0.3; 4: 28.8; 5: -2.5; 6: 1.5; 7: 21.9

In plain terms, OCCc1ccccc1 has a documented nuclear beta-catenin stimulation of 4.3

* * *

- Measurement notes: enhancers of glutamate uptake in motor neurons, MN-1 cell line (AID 1612);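 note: tested at 1 µM final; 0% = mean of DMSO vehicle wells on each plate; positive means more glutamate uptake than control and negative means less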
- Condition notes: MN-1 motor neuron cells, stronger effect = higher value
Recorded endpoint: glutamate uptake change (%)
Numbers only, in %.

Report glutamate uptake change for every entry below.
1. CN[C@H](CC(=O)O)C(=O)O
2. CN(C)CCOC(c1ccccc1)c1ccccc1 (tested in a mixture with another compound)
3. CC(C)=CCC1=C(O)c2ccccc2C(=O)C1=O
4. COc1cc(CNC(=O)CCCC/C=C/C(C)C)ccc1O
5. CC(=C(CCOP(=O)(O)O)SC(=O)c1ccccc1)N(C=O)Cc1cnc(C)nc1N
6. OCc1ccccc1O[C@@H]1O[C@H](CO)[C@@H](O)[C@H](O)[C@H]1O
7. O=C(O)c1cc2cc(Cc3cccnc3)ccc2o1

1: -1.67; 2: -19.1; 3: -3.48; 4: -9.59; 5: 18.4; 6: -4.1; 7: -0.47

Report glutamate uptake change for every entry below.
1. N[C@H](C(=O)O)[C@@H]1CC(Cl)=NO1
2. O=c1c(-c2ccc(O)cc2)coc2cc(O)ccc12
3. NC(=O)c1cccc(N)c1
4. CN(C(=O)CN(CCO)CC(=O)N(C)C(C)(C)Cc1ccccc1)C(C)(C)Cc1ccccc1

1: 6.6; 2: 12; 3: 20.1; 4: -0.7

* * *

- Measurement notes: CellTiter-Glo luminescent readout of SW480 viability loss, NPC library primary (AID 1117343)
- Condition notes: CellTiter-Glo luminescence; at 20 µM (top of the series) unless noted
Recorded endpoint: viability decrease (inhibition) (%)
Give bare numbers, in %.

Below, each entry is followed by its recorded viability decrease (inhibition) result.
Compound: COc1ccc(CCN(C)CCCC(C#N)(c2cc(OC)c(OC)c(OC)c2)C(C)C)cc1OC (stereo not given)
Units symbol: %
viability decrease (inhibition): 22
--
Compound: CN/C(=C\[N+](=O)[O-])NCCSCc1ccc(CN(C)C)o1
Units symbol: %
viability decrease (inhibition): -25.8
--
Compound: O=c1[nH]c(=O)n([C@H]2C[C@H](O)[C@@H](CO)O2)cc1C(F)(F)F
Units symbol: %
viability decrease (inhibition): 98.1
--
Compound: COc1cc(Nc2c(C#N)cnc3cc(OCCCN4CCN(C)CC4)c(OC)cc23)c(Cl)cc1Cl
Units symbol: %
viability decrease (inhibition): 132
--
Compound: CN1C(CCl)Nc2cc(Cl)c(S(N)(=O)=O)cc2S1(=O)=O (stereo not given)
Units symbol: %
viability decrease (inhibition): -2.9

Report viability decrease (inhibition) for every entry below.
1. NC(CO)(CO)CO
2. CCCCCOC(=O)Nc1nc(=O)n([C@@H]2O[C@H](C)[C@@H](O)[C@H]2O)cc1F
3. CC[N+](CC)(CCNC(=O)C(=O)NCC[N+](CC)(CC)Cc1ccccc1Cl)Cc1ccccc1Cl
4. Cc1ccc(-c2ncc(Cl)cc2-c2ccc(S(C)(=O)=O)cc2)cn1
5. CC1=C(/C=C/C(C)=C/C=C/C(C)=C/C(=O)Nc2ccc(O)cc2)C(C)(C)CCC1

-8
-2
6.4
5.7
118

* * *

- Measurement notes: sensitizers of A549 cells to miR-34 induction, primary screen, imaging, A549 dox-inducible miR-34, nuclei and caspase counts (AID 1347080)
- Condition notes: A549 miR-34 inducible, Hoechst nuclei count, 48 h; stronger effect = lower value; cell number ratio, induced over uninduced
Would you mind classing the entries by fold change? Ranges: range 1 (below 0.9), range 2 (0.9 to below 1), range 3 (1 or more)

Below are worked cases with known answers.
Molecule: CN(C/C=C/c1ccccc1)Cc1cccc2ccccc12
Assigned label: range 2
//
Molecule: O=C(NCC(O)CO)c1c(I)c(C(=O)NCC(O)CO)c(I)c(N(CCO)C(=O)CO)c1I (configuration not stated)
Assigned label: range 1
//
Molecule: Nc1ncn([C@H]2C[C@H](O)[C@@H](CO)O2)c(=O)n1
Assigned label: range 1

Quick check: band for Cc1ccc(O)cc1 range 1

Quick check: band for CN(C)CCCSc1ccccc1NC(=O)C=Cc1ccccc1 range 2

Quick check: band for NC(=O)n1c(O)c(C(=O)c2cccs2)c2cc(Cl)ccc21 range 2

Quick check: band for C=C[C@H]1CN2CCC1C[C@@H]2[C@@H](O)c1ccnc2ccc(OC)cc12 (some centres not stated) range 3

Quick check: band for Nc1cc(=O)[nH]c(N)n1 range 2

Quick check: band for NC(N)=NC(=O)c1nc(Cl)c(N2CCCCCC2)nc1N range 3

Quick check: band for CC(=O)N[C@@H](CC(=O)O)C(=O)O range 1

Quick check: band for O=C(Nc1ccc(C(=O)O)c(O)c1)c1ccccc1 range 1

* * *

- Test system: Neuropilin-2 / VEGF-C interaction (human)
- Measurement notes: inhibitors of NRP2–VEGF-C binding, biochemical, microplate binding format, z-score (AID 743281)
- Condition notes: microplate NRP2/VEGF-C binding assay; stronger effect = lower value
Would you mind classing the entries by z-score? Ranges: class A = under -0.08, class B = from -0.08 up to 0.3, class C = 0.3 and over

Below are worked cases with known answers.
Molecule: Clc1ccccc1CN1CCc2sccc2C1
Assigned label: class C
//
Molecule: COc1ccc(/C=C/C(=O)Nc2ccccc2C(=O)O)cc1OC
Assigned label: class C
//
Molecule: OC[C@H]1O[C@@H](Oc2cc(O)cc(/C=C/c3ccc(O)cc3)c2)[C@H](O)[C@@H](O)[C@@H]1O
Assigned label: class B
//
Molecule: CC(C)(C)NCC(O)c1ccc(O)c(CO)c1 (stereo unspecified)
Assigned label: class A
//
Molecule: O=C(CCCN1CCC(O)(c2ccc(Cl)cc2)CC1)c1ccc(F)cc1
Assigned label: class B

Quick check: band for CN1[C@@H]2CC(OC(=O)[C@H](CO)c3ccccc3)C[C@H]1[C@@H]1O[C@@H]12 (stereo partly specified) class A

Quick check: band for Cc1cccc(C)c1NC(=O)C1CCCCN1C (stereo unspecified) class A

Quick check: band for COc1ccc(-c2cc(=O)c3c(OC)c(OC)c(OC)c(OC)c3o2)cc1OC class B

Quick check: band for O=[N+]([O-])c1cccc2cn[nH]c12 class B

Quick check: band for COc1ccc2c3c1O[C@H]1C[C@@H](O)C=C[C@@]31CCN(C)C2 class B

Quick check: band for O=C(O[C@@H]1Cc2c(O)cc(O)cc2O[C@@H]1c1cc(O)c(O)c(O)c1)c1cc(O)c(O)c(O)c1 class C

These measurements were taken from PubChem BioAssay.
